Molecular target: neprosin (mature catalytic domain, recombinant) (Nepenthes ventricosa x Nepenthes alata)
Construct: Mature catalytic domain S129-Q380 from autolysis of pro-neprosin at P128-S129 (pro-domain R25-P128 removed); C-terminal Ala-Ile-Ala plus His6 tag kept; expressed in human Expi293F cells; glycosylated at N145 and N152; monomer
Assay: fluorogenic peptide cleavage (FS6-QPQL), inhibition curve
Format: biochemical
recorded_endpoint: IC50
// return the numeric value with its unit appended

# IC50 lookup, item O=[N+]([O-])c1ccc(OCC2CO2)cc1 (stereo not shown) [EPNP, 2-[(4-nitrophenoxy)methyl]oxirane]
480 µM
